test system: Plasmodium yoelii; assay: Antimalarial activity as reduced parasitaemia (%) against multidrug-resistant Plasmodium yoelii infected Swiss mice (Mus musculus) at 96 mg/kg peroral dose after 4 days; type: functional; design: scale not given: the % may be the effect or the level left; settings: route oral
outcome measure: Activity (%)

- compound: "C=C(c1ccc(F)cc1)C1COC2(CC[C@@]3(C)C(CC[C@H]4[C@@H]5CC[C@H](C(C)=O)[C@@]5(C)CC[C@@H]43)C2)OO1 (stereo not given in full)"
  outcome measure: "Activity"
  units label: "%"
  reading: 100
- compound: "C=C(c1ccc(F)cc1)C1COC2(CC[C@@]3(C)C(CC[C@H]4[C@@H]5CC[C@H]([C@H](C)CCCC(C)C)[C@@]5(C)CC[C@@H]43)C2)OO1 (stereo not given in full)"
  outcome measure: "Activity"
  units label: "%"
  reading: 14.8
- compound: "C=C(c1ccc(OC)cc1)C1COC2(CC[C@@]3(C)C(CC[C@H]4[C@@H]5CC[C@H](C(C)=O)[C@@]5(C)CC[C@@H]43)C2)OO1 (stereo not given in full)"
  outcome measure: "Activity"
  units label: "%"
  reading: 100
- compound: "C=C(c1ccc(Br)cc1)C1COC2(CC[C@@]3(C)C(CC[C@H]4[C@@H]5CC[C@H](C(C)=O)[C@@]5(C)CC[C@@H]43)C2)OO1 (stereo not given in full)"
  outcome measure: "Activity"
  units label: "%"
  reading: 100
- compound: "C=C(c1ccccc1)C1COC2(CC[C@@]3(C)C(CC[C@@H]4[C@@H]3CC[C@]3(C)C([C@H](C)CCCC(C)C)CC[C@@H]43)C2)OO1 (stereo not given in full)"
  outcome measure: "Activity"
  units label: "%"
  reading: 73
- compound: "C=C(c1ccc(Br)cc1)C1COC2(CC[C@@]3(C)C(CC[C@H]4[C@@H]5CC[C@H]([C@H](C)CCCC(C)C)[C@@]5(C)CC[C@@H]43)C2)OO1 (stereo not given in full)"
  outcome measure: "Activity"
  units label: "%"
  reading: 26.1
- compound: "C=C(c1ccc(OC)cc1)C1COC2(CC[C@@]3(C)C(CC[C@H]4[C@@H]5CC[C@H]([C@H](C)CCCC(C)C)[C@@]5(C)CC[C@@H]43)C2)OO1 (stereo not given in full)"
  outcome measure: "Activity"
  units label: "%"
  reading: 53.5
- compound: "C=C(c1ccc(C)cc1)C1COC2(CC[C@@]3(C)C(CC[C@H]4[C@@H]5CC[C@H]([C@H](C)CCCC(C)C)[C@@]5(C)CC[C@@H]43)C2)OO1 (stereo not given in full)"
  outcome measure: "Activity"
  units label: "%"
  reading: 27.4
- compound: "C=C(c1ccc(F)cc1)C1COC2(CC[C@@]3(C)C(CC[C@@H]4[C@@H]3CC[C@@]3(C)[C@H]4OCC34CC[C@@H](C)CO4)C2)OO1 (stereo not given in full)"
  outcome measure: "Activity"
  units label: "%"
  reading: 45.1
- compound: "C=C(c1ccc(C)cc1)C1COC2(CC[C@@]3(C)C(CC[C@@H]4[C@@H]3CC[C@@]3(C)[C@H]4OCC34CC[C@@H](C)CO4)C2)OO1 (stereo not given in full)"
  outcome measure: "Activity"
  units label: "%"
  reading: 50.7
